biological target: MDM2 (Homo sapiens, UniProt Q00987); test: MDM2 binding screen: displacement of fluorescent p53 peptide probe FP53 (fluorescence polarization); conditions: Acid 14; initial screen; crude macrocycle reactions
Sequence (Q00987 whole entry): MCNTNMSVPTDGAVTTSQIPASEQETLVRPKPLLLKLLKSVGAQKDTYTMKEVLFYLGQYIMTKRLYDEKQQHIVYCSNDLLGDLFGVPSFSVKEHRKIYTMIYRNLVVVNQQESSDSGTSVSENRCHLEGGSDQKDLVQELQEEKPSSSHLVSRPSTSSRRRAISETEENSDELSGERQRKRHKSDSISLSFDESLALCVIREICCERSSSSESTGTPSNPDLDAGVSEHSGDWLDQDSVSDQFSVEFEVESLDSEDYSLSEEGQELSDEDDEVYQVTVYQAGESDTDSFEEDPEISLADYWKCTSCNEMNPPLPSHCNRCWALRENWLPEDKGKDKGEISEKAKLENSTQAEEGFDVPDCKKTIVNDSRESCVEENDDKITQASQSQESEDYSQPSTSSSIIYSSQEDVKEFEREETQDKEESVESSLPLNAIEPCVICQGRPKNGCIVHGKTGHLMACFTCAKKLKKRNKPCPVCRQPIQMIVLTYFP
Numbered stars: 1 amine (or outer) side, 2 acyl side, 3 side chain; on linkers, the order of the positions; unused ones are H or OH. Bridge positions count the residues as written; N and C are the ends. Square brackets hold non-standard residues; d marks the D form. Peptide text beside a SMILES is read from it. * marks the point of attachment. 2Thenoyl(5-Cl) = O=C(c1ccc(Cl)s1)*; Cysteamide = C(CS[*:3])N[*:1]; Api = NC1(C(=O)O)CCNCC1; Mpa = O=C(O)CCS
Below: a set of entries, each annotated with reported fraction fluorescent probe displaced, Screen.
measurement-name: fraction fluorescent probe displaced, Screen

molecule	reported-result
O=C1CCNC(=O)C(CNC(=O)c2ccc(Cl)s2)NC(=O)C(Cc2ccccc2)NC(=O)CCSSCCN1 (stereo not drawn)	0.053
O=C1CCNC(=O)[C@H](Cc2ccccc2)NC(=O)[C@H](CNC(=O)c2ccc(Cl)s2)NC(=O)CCSSCCN1	0.053
O=C1CCSSCCNC(=O)[C@H](Cc2ccccc2)NC(=O)[C@H]2CCCN(C2)C(=O)[C@H](CNC(=O)c2ccc(Cl)s2)N1	0.0241
O=C1CCSSCCNC(=O)[C@H](Cc2c[nH]c3ccccc23)NC(=O)[C@H]2CCCN(C2)C(=O)C2(CCN(C(=O)c3ccc(Cl)s3)CC2)N1	0.17
O=C1CCSSCCNC(=O)C(Cc2c[nH]c3ccccc23)NC(=O)c2cccc(c2)CNC(=O)C2(CCN(C(=O)c3ccc(Cl)s3)CC2)N1 (stereo not drawn)	0.23
O=C1CCSSCCNC(=O)[C@H](CNC(=O)c2ccc(Cl)s2)NC(=O)[C@H](Cc2ccccc2)NC(=O)c2cccc(c2)CN1	0.053
O=C1CCSSCCNC(=O)[C@H]2CCCN(C2)C(=O)[C@H](CNC(=O)c2ccc(Cl)s2)NC(=O)[C@H](Cc2ccccc2)N1	0.053
O=C1CCNC(=O)[C@H](Cc2ccccc2)NC(=O)C2(CCN(C(=O)c3ccc(Cl)s3)CC2)NC(=O)CCSSCCN1	0.0241
O=C1CCSSCCNC(=O)[C@@H]2CCCN2C(=O)[C@H](Cc2ccccc2)NC(=O)C2(CCN(C(=O)c3ccc(Cl)s3)CC2)N1 [X D6 F B1 Acid 14] ([Mpa][Api](2Thenoyl(5-Cl))FP-Cysteamide; disulfide 1-C)	0.053

----------
biological target: MDM2 (Homo sapiens, UniProt Q00987); experiment: MDM2 binding screen of Libraries 3 and 4: displacement of fluorescent probe F-M8 at 750 nM macrocycle; conditions: Panel b, Library 3: 63 scaffolds combinatorially acylated with 15 carboxylic acids at 30 picomole scale; displacement of fluorescent peptide probe; macrocycle 750 nM

compound	fraction of fluorescent probe displaced
CC(Oc1cccc(Cl)c1)C(=O)NCC1NC(=O)C2CN(CCO2)C(=O)CCSSCCNC(=O)C(Cc2c[nH]c3ccccc23)NC1=O [X-Cop-D-Dap-D-Trp + Acid 113]	0.008
CC(Oc1cccc(Cl)c1)C(=O)NCCN1CC(=O)N[C@@H](Cc2cn(C)c3ccccc23)C(=O)NCCSSCCC(=O)N2CCC[C@@H](C2)C1=O (stereo partly drawn) [X-Nip-N-Aeg-Me-Trp + Acid 113]	0.008
O=C(/C=C/c1ccc(Cl)cc1)NC[C@@H]1NC(=O)C2(CC2)CNC(=O)CCSSCCNC(=O)[C@H](Cc2ccc3ccccc3c2)NC1=O [X-Amcp-Dap-2-Nal + Acid 108]	0.008
